- assay_target: kinases (Homo sapiens, UniProt P36888, D835Y)
- Construct: purchased Eurofins/DiscoveRx; host or cells: E. coli BL21-derived host (T7 phage display) for most kinases; HEK-293 for the rest
- measurement_description: KINOMEscan kinase binding assay (Eurofins/DiscoveRx), % Ctrl
- details: target FLT3(D835Y); 1 μM
measured_endpoint: % Ctrl, FLT3(D835Y) (% Ctrl)
API: value field is a number in % Ctrl; no unit string.

Enquiry: Give the reported value of % Ctrl, FLT3(D835Y) for this record: CN1CCOCCOc2cc3c(cc2Cl)NC(=O)/C3=C\c2[nH]ccc2C1=O [Ex. 143]
Return: 3.1

Enquiry: Give the reported value of % Ctrl, FLT3(D835Y) for this record: Cc1nn(C)c2c1-c1ccc3c(c1)/C(=C/c1[nH]ccc1C(=O)N(C)CCCO2)C(=O)N3 [Ex. 150]
Return: 67

Enquiry: Give the reported value of % Ctrl, FLT3(D835Y) for this record: Cc1cc2c([nH]1)/C=C1\C(=O)Nc3cnc(cc31)-c1cn[nH]c1CNCCN(C)C2=O [Ex. 55]
Return: 2

# credit: patent US20230257396A1
